Reported Bliss excess values are given for each entry in this list.
System: Hs-633T (Other Solid Carcinomas)
Experiment: Bliss excess, mean over the matrix (fraction); higher = more synergy
Field format: numeric only.

Compound	Study target	Bliss excess
N#Cc1cnc(Nc2cc(NC[C@H]3CNCCO3)c(C(F)(F)F)cn2)cn1 [SRA737] + C=CCn1c(=O)c2cnc(Nc3ccc(N4CCN(C)CC4)cc3)nc2n1-c1cccc(C(C)(C)O)n1 [AZD1775] (first compound max 10 µM, partner max 1 µM)	Hs-633T (Other Solid Carcinomas)	0.0888

In the following, a different compound is considered.
What does the data say about its Bliss excess? Entry: CN(CCO)CC[C@H](CSc1ccccc1)Nc1ccc(S(=O)(=O)NC(=O)c2ccc(N3CCC([C@@H](O)c4ccccc4-c4ccc(Cl)cc4)CC3)cc2)cc1S(=O)(=O)C(F)(F)F [AZD4320] + Cc1cc2ncnn2cc1Nc1ncc2c(n1)n(C1CCOCC1)c(=O)n2C [AZD7648] (first compound max 1 µM, 7x7, partner max 10 µM)
0.0109

###

System: Hs-633T (Other Solid Carcinomas)
Assay: combination Emax (second highest fraction inhibited in the dose matrix, 72 h); higher = more inhibition; extreme values may be limits of the assay
Measured property: combination Emax
Provide a numeric answer; units are not to be included.

The cases that follow already have their combination Emax on record.
Compound	Measured property	Readout value
CC1(C)CCC(CN2CCN(c3ccc(C(=O)NS(=O)(=O)c4ccc(NCC5CCOCC5)c([N+](=O)[O-])c4)c(Oc4cnc5[nH]ccc5c4)c3)CC2)=C(c2ccc(Cl)cc2)C1 [Venetoclax] + C[C@@H](Nc1cc(F)cc(F)c1)c1cc(C(=O)N(C)C)cc2c(=O)cc(N3CCOCC3)oc12 [AZD8186] (first compound max 1 µM, 7x7, partner max 3 µM)	combination Emax	0.186
CCc1c2c(nc3ccc(O)cc13)-c1cc3c(c(=O)n1C2)COC(=O)[C@]3(O)CC [SN-38] + CN(C)CCCOc1ccc(-c2ccc3ncc4c(c3c2)n(C2CCOCC2)c(=O)n4C)cn1 [AZD0156] (first compound max 0.3 µM, 7x7, partner max 1 µM)	combination Emax	0.838
Cc1c2c(nn1C)CSCc1cc(n(C)n1)CSc1cc(c3ccccc3c1)OCCCc1c(C(=O)O)n(C)c3c-2c(Cl)ccc13 [AZD5991] + C[C@@H](Nc1cc(F)cc(F)c1)c1cc(C(=O)N(C)C)cc2c(=O)cc(N3CCOCC3)oc12 [AZD8186] (first compound max 1 µM, 7x7, partner max 3 µM)	combination Emax	0.268
CC1(C)CCC(CN2CCN(c3ccc(C(=O)NS(=O)(=O)c4ccc(NCC5CCOCC5)c([N+](=O)[O-])c4)c(Oc4cnc5[nH]ccc5c4)c3)CC2)=C(c2ccc(Cl)cc2)C1 [Venetoclax] + C=CCn1c(=O)c2cnc(Nc3ccc(N4CCN(C)CC4)cc3)nc2n1-c1cccc(C(C)(C)O)n1 [AZD1775] (first compound max 1 µM, partner max 1 µM)	combination Emax	0.719
Cc1c2c(nn1C)CSCc1cc(n(C)n1)CSc1cc(c3ccccc3c1)OCCCc1c(C(=O)O)n(C)c3c-2c(Cl)ccc13 [AZD5991] + Nc1ccn([C@@H]2O[C@H](CO)[C@@H](O)C2(F)F)c(=O)n1 [Gemcitabine] (first compound max 1 µM, 7x7, partner max 0.3 µM)	combination Emax	0.837

Quick one: combination Emax for CCN(CCO)CCCOc1ccc2c(Nc3cc(CC(=O)Nc4cccc(F)c4)[nH]n3)ncnc2c1 [AZD2811] + C[C@@H]1COCCN1C2=NC(=NC(=C2)C3(CC3)[S@](=N)(=O)C)C4=C5C=CNC5=NC=C4 [AZD6738] (first compound max 1 µM, 7x7, partner max 10 µM) ?
0.885

Same lookup for CN(C)CCCOc1ccc(-c2ccc3ncc4c(c3c2)n(C2CCOCC2)c(=O)n4C)cn1 [AZD0156] + C=CCn1c(=O)c2cnc(Nc3ccc(N4CCN(C)CC4)cc3)nc2n1-c1cccc(C(C)(C)O)n1 [AZD1775] (first compound max 1 µM, partner max 1 µM) , please.
0.769

###

System: Hs-633T (Other Solid Carcinomas)
Experiment: Bliss excess, mean over the matrix (fraction); higher = more synergy
Decide by Bliss excess: equal to or exceeding -0.009 means MET, less means NOT MET.

As a guide, the following entries are already answered.
Molecule	Cat
C[C@@H]1COCCN1c1cc(C2([S@](C)(=N)=O)CC2)nc(-c2ccnc3[nH]ccc23)n1 [AZD6738] + Nc1ccn([C@@H]2O[C@H](CO)[C@@H](O)C2(F)F)c(=O)n1 [Gemcitabine] (first compound max 10 µM, 7x7, partner max 0.3 µM)	MET
CN(C)CCCOc1ccc(-c2ccc3ncc4c(c3c2)n(C2CCOCC2)c(=O)n4C)cn1 [AZD0156] + O=C(c1cc(Cc2n[nH]c(=O)c3ccccc23)ccc1F)N1CCN(C(=O)C2CC2)CC1 [Olaparib] (first compound max 3 µM, partner max 3 µM)	MET
NC1(C(=O)N[C@@H](CCO)c2ccc(Cl)cc2)CCN(c2ncnc3[nH]ccc23)CC1 [Capivasertib] + Cn1cnc2c(F)c(Nc3ccc(Br)cc3Cl)c(C(=O)NOCCO)cc21 [Selumetinib] (first compound max 10 µM, 7x7, partner max 10 µM)	MET
Cc1c2c(nn1C)CSCc1cc(n(C)n1)CSc1cc(c3ccccc3c1)OCCCc1c(C(=O)O)n(C)c3c-2c(Cl)ccc13 [AZD5991] + C=CCn1c(=O)c2cnc(Nc3ccc(N4CCN(C)CC4)cc3)nc2n1-c1cccc(C(C)(C)O)n1 [AZD1775] (first compound max 1 µM, partner max 1 µM)	NOT MET

State whether the measured Bliss excess reaches -0.009, counting equality as reaching it, for CCN(CCO)CCCOc1ccc2c(Nc3cc(CC(=O)Nc4cccc(F)c4)[nH]n3)ncnc2c1 [AZD2811] + O=C(c1cc(Cc2n[nH]c(=O)c3ccccc23)ccc1F)N1CCN(C(=O)C2CC2)CC1 [Olaparib] (first compound max 1 µM, 7x7, partner max 10 µM)
MET

Same read-out for Cc1cc2ncnn2cc1Nc1ncc2c(n1)n(C1CCOCC1)c(=O)n2C [AZD7648] + C[C@@H]1COCCN1C2=NC(=NC(=C2)C3(CC3)[S@](=N)(=O)C)C4=C5C=CNC5=NC=C4 [AZD6738] (first compound max 10 µM, 7x7, partner max 10 µM) ?
NOT MET

###

Tested on: EN (Endometrial Carcinoma)
Assay: combination Emax (second highest fraction inhibited in the dose matrix, 72 h); higher = more inhibition; extreme values may be limits of the assay
Decide using combination Emax: a value greater than or equal to 0.6 is t, a smaller one is f.

Molecule	Cat
COc1cccc(OCCCN)c1-c1cc(Nc2cnc(C#N)cn2)n[nH]1 [Prexasertib] + O=C(c1cc(Cc2n[nH]c(=O)c3ccccc23)ccc1F)N1CCN(C(=O)C2CC2)CC1 [Olaparib] (first compound max 1 µM, 7x7, partner max 10 µM)	t
Cc1c2c(nn1C)CSCc1cc(n(C)n1)CSc1cc(c3ccccc3c1)OCCCc1c(C(=O)O)n(C)c3c-2c(Cl)ccc13 [AZD5991] + Cc1cc2ncnn2cc1Nc1ncc2c(n1)n(C1CCOCC1)c(=O)n2C [AZD7648] (first compound max 1 µM, 7x7, partner max 10 µM)	f
CC1(C)CCC(CN2CCN(c3ccc(C(=O)NS(=O)(=O)c4ccc(NCC5CCOCC5)c([N+](=O)[O-])c4)c(Oc4cnc5[nH]ccc5c4)c3)CC2)=C(c2ccc(Cl)cc2)C1 [Venetoclax] + COc1cc(Nc2ncc3c(n2)-c2ccc(Cl)cc2C(c2c(F)cccc2OC)=NC3)ccc1C(=O)O [Alisertib] (first compound max 1 µM, 7x7, partner max 10 µM)	f
CN(CCO)CC[C@H](CSc1ccccc1)Nc1ccc(S(=O)(=O)NC(=O)c2ccc(N3CCC([C@@H](O)c4ccccc4-c4ccc(Cl)cc4)CC3)cc2)cc1S(=O)(=O)C(F)(F)F [AZD4320] + CN(C)CCCOc1ccc(-c2ccc3ncc4c(c3c2)n(C2CCOCC2)c(=O)n4C)cn1 [AZD0156] (first compound max 1 µM, 7x7, partner max 1 µM)	f
CC1(C)CCC(CN2CCN(c3ccc(C(=O)NS(=O)(=O)c4ccc(NCC5CCOCC5)c([N+](=O)[O-])c4)c(Oc4cnc5[nH]ccc5c4)c3)CC2)=C(c2ccc(Cl)cc2)C1 [Venetoclax] + C=CCn1c(=O)c2cnc(Nc3ccc(N4CCN(C)CC4)cc3)nc2n1-c1cccc(C(C)(C)O)n1 [AZD1775] (first compound max 1 µM, partner max 1 µM)	t

Please tell me: is the molecule COc1cccc(OCCCN)c1-c1cc(Nc2cnc(C#N)cn2)n[nH]1 [Prexasertib] + C[C@@H]1COCCN1C2=NC(=NC(=C2)C3(CC3)[S@](=N)(=O)C)C4=C5C=CNC5=NC=C4 [AZD6738] (first compound max 1 µM, 7x7, partner max 10 µM) at or over 0.6 in terms of combination Emax?
t

###

System: LoVo (Colorectal Carcinoma)
Test: combination Emax (second highest fraction inhibited in the dose matrix, 72 h); higher = more inhibition; extreme values may be limits of the assay
Measured property: combination Emax

Answered cases to consult:
Compound	Study target	combination Emax
O=C(c1cc(Cc2n[nH]c(=O)c3ccccc23)ccc1F)N1CCN(C(=O)C2CC2)CC1 [Olaparib] + Cc1c2c(nn1C)CSCc1cc(n(C)n1)CSc1cc(c3ccccc3c1)OCCCc1c(C(=O)O)n(C)c3c-2c(Cl)ccc13 [AZD5991] (first compound max 10 µM, 7x7, partner max 1 µM)	LoVo (Colorectal Carcinoma)	0.162
CN(CCO)CC[C@H](CSc1ccccc1)Nc1ccc(S(=O)(=O)NC(=O)c2ccc(N3CCC([C@@H](O)c4ccccc4-c4ccc(Cl)cc4)CC3)cc2)cc1S(=O)(=O)C(F)(F)F [AZD4320] + CN(C)CCCOc1ccc(-c2ccc3ncc4c(c3c2)n(C2CCOCC2)c(=O)n4C)cn1 [AZD0156] (first compound max 1 µM, 7x7, partner max 1 µM)	LoVo (Colorectal Carcinoma)	0.287

Attention now turns to another entry.
Identify the measured combination Emax of C[C@@H](c1ccc2nccn2c1)n1nnc2ncc(-c3cnn(C)c3)nc21 [Savolitinib] + CC1(C)CCC(CN2CCN(c3ccc(C(=O)NS(=O)(=O)c4ccc(NCC5CCOCC5)c([N+](=O)[O-])c4)c(Oc4cnc5[nH]ccc5c4)c3)CC2)=C(c2ccc(Cl)cc2)C1 [Venetoclax] (first compound max 1 µM, 7x7, partner max 1 µM) for LoVo (Colorectal Carcinoma).
0.195
